target-entity: MAP3K11 (human)
measurement-protocol: radiometric filter-binding kinase assay
condition: compound 0.1 µM
metric-name: residual activity (%)

molecule: Cc1ccc(Sc2cnc(Nc3cccc(Br)n3)s2)cc1C(=O)N1CCN(C(=O)CN)CC1
unit-string: %
residual activity: 84

molecule: COc1cc(O)c2c(c1)[C@H]1OC1C[C@H](O)[C@H](O)C(=O)/C=C\C[C@H](C)OC2=O (some centres undefined)
unit-string: %
residual activity: 102

molecule: NC(=O)c1cc2c(-c3cccc(-c4ccccc4)c3)cnc(N)c2s1
unit-string: %
residual activity: 74

molecule: NC(=O)c1cc(-c2ccnc(NC3CCCCC3)c2)nc(N2CCNCC2)c1
unit-string: %
residual activity: 93

molecule: CCCCCc1ccc(/C=C/[C@H](O)[C@@H](CO)NC)cc1
unit-string: %
residual activity: 102

molecule: c1ccc2c(-c3cnn4cc(-c5ccc(N6CCNCC6)cc5)cnc34)ccnc2c1
unit-string: %
residual activity: 86

molecule: O=C(O)c1ccc(-c2c[nH]c3ncc(-c4ccccc4)cc23)cc1C1CCCC1
unit-string: %
residual activity: 75

molecule: CC1=C(CO)C(=O)O[C@@H]([C@@H](C)[C@H]2CC[C@H]3[C@@H]4C[C@H]5O[C@]56[C@@H](O)C=CC(=O)[C@]6(C)C4CC[C@]23C)C1 (some centres undefined)
unit-string: %
residual activity: 110

molecule: Cc1cccc(-c2nn(C(=S)Nc3ccccc3)cc2-c2ccnc3ccccc23)n1
unit-string: %
residual activity: 104

###

target-entity: CHEK1 (human) (UniProt O14757)
Sequence (O14757 whole entry, looked up): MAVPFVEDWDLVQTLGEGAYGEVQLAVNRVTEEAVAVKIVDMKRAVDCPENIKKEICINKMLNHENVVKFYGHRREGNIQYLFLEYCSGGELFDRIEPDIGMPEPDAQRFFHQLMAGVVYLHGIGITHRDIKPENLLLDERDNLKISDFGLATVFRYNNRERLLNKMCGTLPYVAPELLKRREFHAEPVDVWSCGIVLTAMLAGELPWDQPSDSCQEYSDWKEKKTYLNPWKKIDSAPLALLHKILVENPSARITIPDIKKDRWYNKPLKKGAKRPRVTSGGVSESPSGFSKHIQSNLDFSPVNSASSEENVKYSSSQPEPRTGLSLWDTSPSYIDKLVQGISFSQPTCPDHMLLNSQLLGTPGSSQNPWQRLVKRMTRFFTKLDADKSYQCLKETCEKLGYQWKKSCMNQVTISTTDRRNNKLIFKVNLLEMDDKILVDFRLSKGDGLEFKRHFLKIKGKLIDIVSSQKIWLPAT
measurement-protocol: radiometric filter-binding kinase assay
condition: compound 1.0 µM
metric-name: residual activity (%)

(I) FC(F)(F)c1ccc(-c2ccc(Oc3cncc4sc(-c5nn[nH]n5)cc34)cc2)cc1
(II) NC(=O)c1cc2c(-c3cccc(-c4ccccc4)c3)cnc(N)c2s1
IN: Pick one: I or II . Which one has the lower reported residual activity? The response must carry the label of the picked entry.
OUT: II

###

System: SGK1 (human), O00141 [S422D]
Sequence (O00141 whole entry S422D, looked up): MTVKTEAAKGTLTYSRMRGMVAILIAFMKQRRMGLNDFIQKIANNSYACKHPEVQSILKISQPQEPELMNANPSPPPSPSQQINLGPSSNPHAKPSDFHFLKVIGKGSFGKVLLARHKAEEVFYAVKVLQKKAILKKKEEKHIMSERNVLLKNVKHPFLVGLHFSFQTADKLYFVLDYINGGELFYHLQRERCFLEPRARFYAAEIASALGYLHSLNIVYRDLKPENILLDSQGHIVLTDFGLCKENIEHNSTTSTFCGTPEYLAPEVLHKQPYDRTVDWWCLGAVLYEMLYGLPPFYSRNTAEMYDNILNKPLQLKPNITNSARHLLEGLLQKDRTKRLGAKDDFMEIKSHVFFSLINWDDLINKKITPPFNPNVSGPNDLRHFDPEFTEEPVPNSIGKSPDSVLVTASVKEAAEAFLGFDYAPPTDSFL
measurement-protocol: radiometric filter-binding kinase assay
condition: compound 1.0 µM
metric-name: residual activity (%)

Sample records with residual activity:
smiles-structure: c1ccc2c(-c3cnn4cc(-c5ccc(N6CCNCC6)cc5)cnc34)ccnc2c1
target-entity: SGK1 (human), O00141 [S422D]
unit-string: %
residual activity: 79
//
smiles-structure: O=C(Nc1ccccc1-c1cn2c(CN3CCNCC3)csc2n1)c1cnc2ccccc2n1
target-entity: SGK1 (human), O00141 [S422D]
unit-string: %
residual activity: 94
//
smiles-structure: COc1cc(C(=O)N2CCOCC2)c(F)cc1Nc1ncc(C(F)(F)F)c(NC2CC2)n1
target-entity: SGK1 (human), O00141 [S422D]
unit-string: %
residual activity: 88

(a) Cc1ccc(-c2ccc3c(ccc4sc5c(c43)NC[C@@H](C)NC5=O)n2)cn1
(b) CCn1c(-c2nonc2N)nc2cncc(CNC3CCNCC3)c21
IN: Pick one: a or b . Which one has the lower reported residual activity? The response must carry the label of the picked entry.
OUT: b
(b: 55%, a: 112%)

###

target-entity: FLT1 (human) (UniProt P17948)
Sequence (P17948 whole entry, looked up): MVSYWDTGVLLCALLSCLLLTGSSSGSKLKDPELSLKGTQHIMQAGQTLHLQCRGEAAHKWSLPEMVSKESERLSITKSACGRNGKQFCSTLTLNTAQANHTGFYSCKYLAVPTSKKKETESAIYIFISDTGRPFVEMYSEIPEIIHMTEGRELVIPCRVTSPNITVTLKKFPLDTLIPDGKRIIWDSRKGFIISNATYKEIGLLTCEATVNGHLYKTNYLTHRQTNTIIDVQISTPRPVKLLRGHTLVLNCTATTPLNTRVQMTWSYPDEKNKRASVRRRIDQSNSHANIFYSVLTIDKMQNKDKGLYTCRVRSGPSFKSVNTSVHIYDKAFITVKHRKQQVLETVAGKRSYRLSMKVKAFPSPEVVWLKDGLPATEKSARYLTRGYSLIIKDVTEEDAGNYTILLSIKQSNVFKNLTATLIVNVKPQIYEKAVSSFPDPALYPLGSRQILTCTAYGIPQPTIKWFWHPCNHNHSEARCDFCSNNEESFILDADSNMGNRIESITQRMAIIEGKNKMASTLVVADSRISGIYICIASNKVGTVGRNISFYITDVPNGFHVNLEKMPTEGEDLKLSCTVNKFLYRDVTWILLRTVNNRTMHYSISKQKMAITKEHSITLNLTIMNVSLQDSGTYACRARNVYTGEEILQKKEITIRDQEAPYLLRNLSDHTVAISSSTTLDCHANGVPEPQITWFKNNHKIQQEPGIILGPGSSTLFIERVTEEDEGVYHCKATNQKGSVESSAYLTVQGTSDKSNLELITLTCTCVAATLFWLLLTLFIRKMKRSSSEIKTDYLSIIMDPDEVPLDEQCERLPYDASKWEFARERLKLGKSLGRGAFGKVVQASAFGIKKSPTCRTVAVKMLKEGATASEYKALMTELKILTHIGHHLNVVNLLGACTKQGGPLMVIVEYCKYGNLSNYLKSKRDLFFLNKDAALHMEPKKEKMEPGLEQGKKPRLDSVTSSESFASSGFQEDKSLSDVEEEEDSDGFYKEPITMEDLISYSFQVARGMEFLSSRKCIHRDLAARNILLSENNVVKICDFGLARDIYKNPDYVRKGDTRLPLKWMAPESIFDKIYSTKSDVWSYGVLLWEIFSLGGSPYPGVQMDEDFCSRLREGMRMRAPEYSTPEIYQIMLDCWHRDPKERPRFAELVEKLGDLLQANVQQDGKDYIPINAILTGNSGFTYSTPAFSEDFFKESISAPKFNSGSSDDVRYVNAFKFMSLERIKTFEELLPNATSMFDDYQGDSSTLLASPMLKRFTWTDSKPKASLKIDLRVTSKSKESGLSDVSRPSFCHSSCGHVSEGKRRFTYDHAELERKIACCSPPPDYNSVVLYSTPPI
measurement-protocol: radiometric filter-binding kinase assay
condition: compound 0.1 µM
metric-name: residual activity (%)

Sample records with residual activity:
smiles-structure: NC(=O)c1cc(-c2ccnc(NC3CCCCC3)c2)nc(N2CCNCC2)c1
target-entity: FLT1 (human) (UniProt P17948)
obs-value: 95

smiles-structure: Cc1cccc(-c2nn(C(=S)Nc3ccccc3)cc2-c2ccnc3ccccc23)n1
target-entity: FLT1 (human) (UniProt P17948)
obs-value: 27

smiles-structure: CN1CCN(CCOc2cc(OC3CCOCC3)c3c(Nc4c(Cl)ccc5c4OCO5)ncnc3c2)CC1
target-entity: FLT1 (human) (UniProt P17948)
obs-value: 116

smiles-structure: CNc1nc(-c2ccc3c(N)n[nH]c3c2)cc(N2C[C@@H](C(=O)NC3CCCCC3)CC[C@H]2C)n1
target-entity: FLT1 (human) (UniProt P17948)
obs-value: 108

smiles-structure: Cc1cc(NC(=O)c2cccc(NC(=O)/C=C/CN(C)C)c2)ccc1Nc1nccc(-c2cccnc2)n1
target-entity: FLT1 (human) (UniProt P17948)
obs-value: 100

smiles-structure: NC1(c2ccc(-c3nc4ccn5c(=O)[nH]nc5c4cc3-c3ccccc3)cc2)CCC1
target-entity: FLT1 (human) (UniProt P17948)
obs-value: 88

smiles-structure: c1ccc2c(-c3cnn4cc(-c5ccc(N6CCNCC6)cc5)cnc34)ccnc2c1
target-entity: FLT1 (human) (UniProt P17948)
obs-value: 48

(P) COc1ccc(N(C(=O)Nc2c(C)cccc2C)c2cc(Nc3ccc(N4CCN(C)CC4)cc3)ncn2)c(OC)c1
(Q) CCCCCc1ccc(/C=C/[C@H](O)[C@@H](CO)NC)cc1
IN: Pick one: P or Q . Which one has the lower reported residual activity? The response must carry the label of the picked entry.
OUT: P
